Origin of the recorded values: patent US20250163076A1

TEST DETAILS: Epimerization kinetics / rotational energy barrier of atropisomers in solvents
Format: physicochemical
APPLIED CONDITIONS: EtOH, t1/2 at 20° C.
RECORDED METRIC: half-life (days)
Dear colleague, please return just the value in days, with no unit written.

input: Would you mind telling me what half-life value was observed for C=CC(=O)N[C@H]1CCC[C@H]1NC(=O)c1sc2nccc3c2c1NC(=O)N3c1cnc(CC(C)C)cc1C ?
output: 2560

====

TEST DETAILS: Aqueous solubility at pH 2 and pH 7
Type: physicochemical
APPLIED CONDITIONS: aqueous medium, aqueous buffer; Table 4; pH 7; read-out: Solubility pH 7
RECORDED METRIC: Solubility (µM)
Dear colleague, please return just the value in µM, with no unit written.

input: Would you mind telling me what Solubility value was observed for C=CC(=O)N1CCCC(NC(=O)c2sc3nccc4c3c2NC(=O)N4c2cnc(OC3CCC3)cc2C)C1 (centres unmarked) [H] ?
output: 4

input: Would you mind telling me what Solubility value was observed for C=CC(=O)N1CCCC(NC(=O)c2sc3nccc4c3c2NC(=O)N4c2cnc(Oc3ccccc3)cc2C)C1 (centres unmarked) [Compound F] ?
output: 7

input: Would you mind telling me what Solubility value was observed for C=CC(=O)N1CCCC(NC(=O)c2sc3nccc4c3c2NC(=O)N4c2cnc(OC(C)C)cc2C)C1 (centres unmarked) [Compound I] ?
output: 68

input: Would you mind telling me what Solubility value was observed for C=CC(=O)N1CCCC(NC(=O)c2sc3nccc4c3c2NC(=O)N4c2ccc(Oc3ccccc3)cn2)C1 (centres unmarked) [C] ?
output: 9

input: Would you mind telling me what Solubility value was observed for C=CC(=O)N1CCCC(NC(=O)c2sc3nccc4c3c2NC(=O)N4c2ncc(Oc3ccccc3)cc2C)C1 (centres unmarked) [E] ?
output: 9

input: Would you mind telling me what Solubility value was observed for C=CC(=O)N1CCCC(NC(=O)c2sc3nccc4c3c2NC(=O)N4c2ccc(Oc3ccccc3)nc2)C1 (centres unmarked) [D] ?
output: 4

====

TEST DETAILS: Epimerization kinetics / rotational energy barrier of atropisomers in solvents
Assay type: physicochemical
APPLIED CONDITIONS: Acetonitrile, t1/2 at 20° C.
RECORDED METRIC: half-life (days)
Dear colleague, please return just the value in days, with no unit written.

input: Would you mind telling me what half-life value was observed for C=CC(=O)N[C@H]1CCC[C@H]1NC(=O)c1sc2nccc3c2c1NC(=O)N3c1cnc(CC(C)C)cc1C ?
output: 3650

====

TEST DETAILS: Epimerization kinetics / rotational energy barrier of atropisomers in solvents
Format: physicochemical
APPLIED CONDITIONS: MIBK, t1/2 at 20° C.
From the text: The rotational energy barrier of compound of Formula (II) atropisomers was estimated according to the method known in the art. […]
RECORDED METRIC: half-life (days)
Dear colleague, please return just the value in days, with no unit written.

input: Would you mind telling me what half-life value was observed for C=CC(=O)N[C@H]1CCC[C@H]1NC(=O)c1sc2nccc3c2c1NC(=O)N3c1cnc(CC(C)C)cc1C ?
output: 1100

====

Would you kindly list half-life for each of these compounds?
TEST DETAILS: Human liver microsomes T1/2
Format: in vitro ADME
APPLIED CONDITIONS: human, liver microsomes; Table 4
Dear colleague, please return just the value in min, with no unit written.

input: Would you mind telling me what half-life value was observed for C=CC(=O)N1CCCC(NC(=O)c2sc3nccc4c3c2NC(=O)N4c2cnc(Oc3ccccc3)cc2C)C1 (stereo not drawn) ?
output: 5

input: Would you mind telling me what half-life value was observed for C=CC(=O)N1CCCC(NC(=O)c2sc3nccc4c3c2NC(=O)N4c2cnc(CC(C)C)cc2C)C1 (stereo not drawn) ?
output: 6

input: Would you mind telling me what half-life value was observed for C=CC(=O)N1CCCC(NC(=O)c2sc3nccc4c3c2NC(=O)N4c2ncc(Oc3ccccc3)cc2C)C1 (stereo not drawn) ?
output: 4

input: Would you mind telling me what half-life value was observed for C=CC(=O)N1CCCC(NC(=O)c2sc3nccc4c3c2NC(=O)N4c2cnc(OC(C)C)cc2C)C1 (stereo not drawn) ?
output: 19

input: Would you mind telling me what half-life value was observed for C=CC(=O)N1CCCC(NC(=O)c2sc3nccc4c3c2NC(=O)N4c2ccc(Oc3ccccc3)nc2)C1 (stereo not drawn) ?
output: 6

====

TEST DETAILS: Epimerization kinetics / rotational energy barrier of atropisomers in solvents
Assay type: physicochemical
APPLIED CONDITIONS: 1-butanol/water 85/15 w/w %, t1/2 at 20° C.
RECORDED METRIC: half-life (days)
Dear colleague, please return just the value in days, with no unit written.

input: Would you mind telling me what half-life value was observed for C=CC(=O)N[C@H]1CCC[C@H]1NC(=O)c1sc2nccc3c2c1NC(=O)N3c1cnc(CC(C)C)cc1C ?
output: 1460

====

TEST DETAILS: PPB % free, dog
Assay type: in vitro ADME
APPLIED CONDITIONS: plasma
RECORDED METRIC: fraction unbound

input: Would you mind telling me what fraction unbound value was observed for C=CC(=O)N[C@H]1CCC[C@H]1NC(=O)c1sc2nccc3c2c1NC(=O)N3c1cnc(CC(C)C)cc1C (single isomer, unassigned) ?
output: 0.063

====

TEST DETAILS: Epimerization kinetics / rotational energy barrier of atropisomers in solvents
Format: physicochemical
APPLIED CONDITIONS: 1-butanol, t1/2 at 20° C.
RECORDED METRIC: half-life (days)
Dear colleague, please return just the value in days, with no unit written.

input: Would you mind telling me what half-life value was observed for C=CC(=O)N[C@H]1CCC[C@H]1NC(=O)c1sc2nccc3c2c1NC(=O)N3c1cnc(CC(C)C)cc1C ?
output: 1100

====

TEST DETAILS: Epimerization kinetics / rotational energy barrier of atropisomers in solvents
Type: physicochemical
APPLIED CONDITIONS: propylene carbonate, t1/2 at 20° C.
RECORDED METRIC: half-life (days)
Dear colleague, please return just the value in days, with no unit written.

input: Would you mind telling me what half-life value was observed for C=CC(=O)N[C@H]1CCC[C@H]1NC(=O)c1sc2nccc3c2c1NC(=O)N3c1cnc(CC(C)C)cc1C ?
output: 2190

====

TEST DETAILS: Solubility of P and M forms in solvent systems and their water mixtures
Type: physicochemical
APPLIED CONDITIONS: propylene carbonate, 25 °C, organic solvent or mixture, Propylene carbonate; 25° C.; read-out: Solubility
Description: Moreover, this solubility difference can be tuned by changing the ratio between 1-propanol/water. Therefore, M form can be efficiently converted even starting from a 1:1 d.r. mixture.
RECORDED METRIC: Solubility (mg/mL)
Dear colleague, please return just the value in mg/mL, with no unit written.

input: Would you mind telling me what Solubility value was observed for C=CC(=O)N[C@H]1CCC[C@H]1NC(=O)c1sc2nccc3c2c1NC(=O)N3c1cnc(CC(C)C)cc1C (single isomer, unassigned) [P form] ?
output: 50.1

====

TEST DETAILS: Epimerization kinetics / rotational energy barrier of atropisomers in solvents
Type: physicochemical
APPLIED CONDITIONS: 1-propanol/water 33/67 w/w %, t1/2 at 20° C.
RECORDED METRIC: half-life (days)
Dear colleague, please return just the value in days, with no unit written.

input: Would you mind telling me what half-life value was observed for C=CC(=O)N[C@H]1CCC[C@H]1NC(=O)c1sc2nccc3c2c1NC(=O)N3c1cnc(CC(C)C)cc1C [Formula (II)] ?
output: 3290

====

TEST DETAILS: Epimerization kinetics / rotational energy barrier of atropisomers in solvents
Assay type: physicochemical
APPLIED CONDITIONS: IPAC, t1/2 at 20° C.
RECORDED METRIC: half-life (days)
Dear colleague, please return just the value in days, with no unit written.

input: Would you mind telling me what half-life value was observed for C=CC(=O)N[C@H]1CCC[C@H]1NC(=O)c1sc2nccc3c2c1NC(=O)N3c1cnc(CC(C)C)cc1C ?
output: 1830

====

TEST DETAILS: Epimerization kinetics / rotational energy barrier of atropisomers in solvents
Assay type: physicochemical
APPLIED CONDITIONS: 1-propanol/water 67/33 w/w %, t1/2 at 20° C.
RECORDED METRIC: half-life (days)
Dear colleague, please return just the value in days, with no unit written.

input: Would you mind telling me what half-life value was observed for C=CC(=O)N[C@H]1CCC[C@H]1NC(=O)c1sc2nccc3c2c1NC(=O)N3c1cnc(CC(C)C)cc1C ?
output: 2190

====

TEST DETAILS: PPB % free, human
APPLIED CONDITIONS: plasma
RECORDED METRIC: fraction unbound

input: Would you mind telling me what fraction unbound value was observed for C=CC(=O)N[C@H]1CCC[C@H]1NC(=O)c1sc2nccc3c2c1NC(=O)N3c1cnc(CC(C)C)cc1C (single isomer, unassigned) ?
output: 0.031
